# System: HLA-A*24
# PROCEDURE_SUMMARY: MHC binding assay by UV-ligand exchange and beta2m ELISA
# Parameters: species or system human
# EXPERIMENTAL_CONTEXT: peptide exchange yield
OBSERVED_PROPERTY: Peptide exchange

Consider the worked cases shown below.
1. 35 (IYTRVTYYL; listed as Homo sapiens) [compound 35]: ++ (>20% = ++)
2. 42 (TYIGQGYII; listed as Homo sapiens) [compound 42]: +++ (>50 = +++)
3. 48 (AWAPKPYHKF; listed as Homo sapiens) [compound 48]: +++ (>50 = +++)
4. 26 (RYADDTFTPAF; listed as Homo sapiens) [compound 26]: +++ (>50 = +++)
5. 56 (LFHPEDTGQVF; listed as Homo sapiens) [compound 56]: ++ (>20% = ++)

Below are 2 substances. Give each one its Peptide exchange.
1. 25 (IYEPYLAMF; listed as Homo sapiens) [compound 25]
2. 43 (AYIKNGQLF; listed as Homo sapiens) [compound 43]

1. +++ (>50 = +++)
2. +++ (>50 = +++)
